system: HSV-1 (herpes simplex virus type 1, strain Schooler); test: HSV-1 plaque reduction antiviral assay in WI-38 cell culture monolayers; format: cell-based; conditions: Human alphaherpesvirus 1, 96 h, WI-38 cell monolayers, plaque reduction after 4 days incubation at 37°C, read-out: ID50 (μM) for the following viruses HSV-1
RESULT TYPE: IC50

Item Nc1nc2c(ncn2C2CC(F)(CO)C2CO)c(=O)[nH]1 (stereo not shown) has what recorded IC50?
0.35 to 0.7 µM

###

tested on: VZV (varicella zoster virus, strain ELLEN); experiment: VZV plaque reduction antiviral assay in WI-38 cell culture monolayers; assay type: cell-based; settings: WI-38 cell monolayers, plaque reduction after 6-7 days incubation at 37°C, read-out: ID50 (μM) for the following viruses VZV
RESULT TYPE: IC50

Any idea what IC50 came out for Nc1nc2c(ncn2[C@H]2C[C@@](F)(CO)[C@@H]2O)c(=O)[nH]1 [Product of Example 2] on VZV (varicella zoster virus, strain ELLEN)?
7 to 19 µM
